system_tested: T1, Nbp2, Q12163
T1 sequence (Q12163 103-180, looked up): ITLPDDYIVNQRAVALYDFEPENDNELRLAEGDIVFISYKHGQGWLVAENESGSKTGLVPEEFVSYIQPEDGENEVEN
assay_comment: SPOT array
experimental_context: median of control spots 357
The entries below come with measured SPOT intensity values attached.
Form field (numeric): enter value without unit.

Illustrative cases are given below, each with its answer.
LTRRFPFLFPFDTRM ... 16
DGNEEKPLLPTRPNK ... 0
QPPLPSSAPPIPTSH ... 0
YLTRPLPSTPNEDSR ... 0
LYKRKPILLPDPKPL ... 1

Qu. Reported SPOT intensity, binder NLKKRPPTAPQRKIS : ____
Ans. 48

Qu. Do the same for EREKALPPIPFTTTL please
Ans. 0
